Tested on: human 20S proteasome, chymotrypsin-like (CT-L) site
Construct: purchased Boston Biochem, Inc. (Cambridge, MA)
Test: Fluorogenic peptide degradation 20S proteasome activity assay, Suc-LLVY-AMC (CT-L activity)
Format: biochemical
Settings: Suc-LLVY-AMC substrate
value-kind: Max Fold, CT-L (fold)
Entry rule: numbers only, all in fold.

Solved entries (count: 3):
compound	reported-result
COc1ccc2c(c1)N=C(c1ccccc1)N(C1CCN(C)CC1)C2c1ccccc1 (stereo not shown)	1.1
COc1ccc2c(c1)N=C(c1ccccc1)N(C1CCN(Cc3ccccc3)CC1)C2c1ccccc1 (stereo not shown)	3.8
COc1ccc2c(c1)N=C(c1ccccc1)N(Cc1ccccc1)C2c1ccccc1 (stereo not shown)	5.6

Proceeding to the next compound to report its Max Fold, CT-L.
Which measured Max Fold, CT-L value corresponds to COc1ccc2c(c1)N=C(c1ccccc1)N(c1ccccc1)C2c1ccccc1 (stereo not shown) ? 6.7
